Entries and their IC50
system: SW1990; test: Antiproliferative activity against human SW1990 cells assessed as inhibition of cell growth measured after 5 days by MTT assay; format: functional, cell-based; conditions: SW1990, 120 h

| compound | IC50 (nM) |
| --- | --- |
| O=C(c1cc(Cc2n[nH]c(=O)c3ccccc23)ccc1F)N1CCN(C(=O)C2CC2)CC1 [OLAPARIB] | 4930 |
| Cc1sc2c(c1C)C(c1ccc(Cl)cc1)=N[C@@H](CC(=O)OC(C)(C)C)c1nnc(C)n1-2 | 1110 |
| Cc1noc(C)c1-c1ccc2c(c1)C(c1ccccc1)N(Cc1nc3c(C(N)=O)cccc3[nH]1)C(=O)N2C (stereo not drawn) | 980 |

====

system: MDA-MB-468; test: Antiproliferative activity against BRCA-proficient human MDA-MB-468 cells assessed as inhibition of cell growth measured after 7 days by MTT assay; format: functional, cell-based; details: MDA-MB-468, 168 h
Field: label. Allowed values: t (IC50 < 500 nM) or f (IC50 >= 500 nM).

| molecule | measuredOn | classAssignment |
| --- | --- | --- |
| Cc1sc2c(c1C)C(c1ccc(Cl)cc1)=N[C@@H](CC(=O)OC(C)(C)C)c1nnc(C)n1-2 | MDA-MB-468 | f |
| Cc1noc(C)c1-c1ccc2c(c1)C(c1ccccc1)N(CC(=O)c1nc3c(C(N)=O)cccc3[nH]1)C(=O)N2 (centres undefined) | MDA-MB-468 | f |
| O=C(c1cc(Cc2n[nH]c(=O)c3ccccc23)ccc1F)N1CCN(C(=O)C2CC2)CC1 [OLAPARIB] | MDA-MB-468 | f |
| Cc1noc(C)c1-c1ccc2c(c1)C(c1ccccc1)N(CC(=O)N[C@@H](C)c1nc3c(C(N)=O)cccc3[nH]1)C(=O)N2 (some centres undefined) | MDA-MB-468 | f |
| Cc1noc(C)c1-c1ccc2c(c1)C(c1ccccc1)N(CC(=O)N[C@H](C)c1nc3c(C(N)=O)cccc3[nH]1)C(=O)N2 (some centres undefined) | MDA-MB-468 | f |
| Cc1noc(C)c1-c1ccc2c(c1)C(c1ccccc1)N(CC(=O)N[C@@H](C)c1nc3c(C(N)=O)cccc3[nH]1)C(=O)N2C (some centres undefined) | MDA-MB-468 | t |
| Cc1noc(C)c1-c1ccc2c(c1)C(c1ccccc1)N(Cc1nc3c(C(N)=O)cccc3[nH]1)C(=O)N2 (centres undefined) | MDA-MB-468 | f |
| Cc1noc(C)c1-c1ccc2c(c1)C(c1ccccc1)N(CC(=O)NC(C)(C)c1nc3c(C(N)=O)cccc3[nH]1)C(=O)N2 (centres undefined) | MDA-MB-468 | t |
| Cc1noc(C)c1-c1ccc2c(c1)C(c1ccccc1)N(Cc1nc3c(C(N)=O)cccc3[nH]1)C(=O)N2C (centres undefined) | MDA-MB-468 | t |

====

system: SW1990; experiment: Antiproliferative activity against human SW1990 cells assessed as inhibition of cell growth measured after 7 days by MTT assay; format: functional, cell-based; conditions: SW1990, 168 h
Reported IC50 values are given for each entry in this list.
readout: IC50 (µM)

| molecule | unit | recordedMeasurement |
| --- | --- | --- |
| Cc1noc(C)c1-c1ccc2c(c1)C(c1ccccc1)N(Cc1nc3c(C(N)=O)cccc3[nH]1)C(=O)N2C (stereo not drawn) | µM | 0.56 |
| O=C(c1cc(Cc2n[nH]c(=O)c3ccccc23)ccc1F)N1CCN(C(=O)C2CC2)CC1 | µM | 3.63 |
| Cc1sc2c(c1C)C(c1ccc(Cl)cc1)=N[C@@H](CC(=O)OC(C)(C)C)c1nnc(C)n1-2 | µM | 0.63 |

====

test system: THP-1; assay: Antiproliferative activity against human THP-1 cells expressing BRD4 assessed as inhibition of cell growth measured after 3 days by MTT assay; type: functional, cell-based; conditions: THP-1, 72 h
pIC50: −log10 of the molar value.
Let's look at some compounds and their measured pIC50.
readout: pIC50

| compound | measuredOn | readout | recordedMeasurement |
| --- | --- | --- | --- |
| Cc1noc(C)c1-c1ccc2c(c1)C(c1ccccc1)N(CC(=O)N[C@H](C)c1nc3c(C(N)=O)cccc3[nH]1)C(=O)N2 (stereo partly drawn) | THP-1 | pIC50 | 5.82 |
| Cc1noc(C)c1-c1ccc2c(c1)C(c1ccccc1)N(CC(=O)N[C@@H](C)c1nc3c(C(N)=O)cccc3[nH]1)C(=O)N2C (stereo partly drawn) | THP-1 | pIC50 | 6.13 |
| Cc1noc(C)c1-c1ccc2c(c1)C(c1ccccc1)N(CC(=O)NC(C)(C)c1nc3c(C(N)=O)cccc3[nH]1)C(=O)N2 (stereo not drawn) | THP-1 | pIC50 | 6.16 |
